Test system: A673/TR/shEF
Assay: cell viability (LOESS-normalised, relative to median of negative controls) (log2 ratio); higher = more viable cells (less compound effect), active = hit call of the paper (over 3 MAD below the median)
Details: 2.5 µM; library screen: screen1; EWS-FLI1 expression: low (doxycycline-induced shRNA knockdown); treatment time: 72 h
Screen size: about 3,200 compounds; about 300 (9.4%) showed activity. This is one part of a sample in which actives are shown more often than they occur.
Please go through the items and note down their cell viability (log2).
I only need the number, thanks.

Looking up CN1CCN(c2nc3ccccn3c(=O)c2/C=C2\SC(=S)N(CC3CCCO3)C2=O)CC1 (centres undefined) , I found its cell viability (log2) recorded as 0.048

cell viability (log2) measured on C[C@H](CCC(=O)O)[C@H]1CC[C@H]2[C@@H]3C[C@H](O)C4C[C@H](O)CC[C@]4(C)[C@H]3CC[C@]12C (some centres undefined) = -0.0216

Query COc1ccc(CN2CCN(Cc3ccc(OC)c(OC)c3OC)CC2)cc1Br yields cell viability (log2) of 0.0422

Input CC(=O)O[C@H]1CC[C@@]2(C)C(C[C@@H](OC(C)=O)[C@@]3(C)C4=CC(=O)OC(c5ccoc5)[C@]4(C)CCC23)C1(C)C (some centres undefined) . Output cell viability (log2): 0.124

###

Test system: A673/TR/shEF
Test: cell viability (LOESS-normalised, relative to median of negative controls) (log2 ratio); higher = more viable cells (less compound effect), active = hit call of the paper (over 3 MAD below the median)
Conditions: 0.25 µM; library screen: screen1; EWS-FLI1 expression: high (no doxycycline); treatment time: 72 h
Among all 3,200 compounds or so, about 300 (9.4%) showed activity. Only a selection was taken, and actives are over-represented in it overall.
So I've got a bunch of molecules here, and I need their cell viability (log2) values.
// no unit string in output, number only

Form field cell viability (log2), entry NS(=O)(=O)c1ccc(-c2ccc(/C=C3/SC(=S)N(C4CCCCC4)C3=O)o2)cc1 : 0.109

Reported cell viability (log2) ( Cc1nnc(SCC(=O)N2c3cc(C)c(C)cc3-c3c(ssc3=S)C2(C)C)s1 ) = 0.0437

Value of measured cell viability (log2) for the entry C(#CC12CC3CC(CC(C3)C1)C2)CN1CCOCC1 : 0.0887

molecule CC(C)NCC(O)COc1cccc2ccccc12 (stereo unspecified) , cell viability (log2) observed: 0.149

Just so you know, measured cell viability (log2) for C=CCc1ccccc1OCC(O)CNC(C)C (stereo unspecified) came out at 0.0845

Entry Cc1ccc(NC(=O)c2ccc(OC3CSC3)cc2)cc1 — recorded cell viability (log2) = -0.0477

###

Tested on: A673/TR/shEF
Assay: cell viability (LOESS-normalised, relative to median of negative controls) (log2 ratio); higher = more viable cells (less compound effect), active = hit call of the paper (over 3 MAD below the median)
Conditions: 0.926 µM; library screen: screen3; EWS-FLI1 expression: low (doxycycline-induced shRNA knockdown); treatment time: 72 h
Hit rate of the full screen: of about 3,200 compounds, about 300 (9.4%) showed activity. This is one part of a sample in which actives are shown more often than they occur.
Could you please report measured cell viability (log2) for the items listed next?
// no unit, no text: just the number

# cell viability (log2) measured on A673/TR/shEF for item COc1cc([C@@H]2c3cc4c(cc3[C@@H](O[C@@H]3O[C@@H]5CO[C@@H](c6cccs6)O[C@H]5[C@H](O)[C@H]3O)[C@H]3COC(=O)[C@H]23)OCO4)cc(OC)c1O = -0.262

Observed cell viability (log2) on A673/TR/shEF, entry FC(F)(F)c1ccc(/C=C/c2nc(COc3ccc(CCCCn4ccnn4)cc3)co2)cc1 , equals -0.153

A673/TR/shEF data for Cc1ccncc1Nc1ncccc1C(=O)Nc1ccc(C2(C#N)CCCC2)cc1 ; its cell viability (log2): -0.00768

Form: item CCC1(c2ccccc2)C(=O)NCNC1=O ; test system A673/TR/shEF; cell viability (log2): 0.0786

Measured cell viability (log2) (A673/TR/shEF), entry c1ccc([C@H]2CN3CCSC3=N2)cc1 : 0.0447

Log: A673/TR/shEF, molecule CS(=O)(=O)c1ccc(C(=O)Nc2ccc(Cl)c(-c3ccccn3)c2)c(Cl)c1 , cell viability (log2) = 0.0515

# cell viability (log2) measured on A673/TR/shEF for item CN1/C(=C(\O)Nc2ccccn2)C(=O)c2ccccc2S1(=O)=O = 0.0843

The molecule C#Cc1cccc(Nc2ncnc3cc(OC)c(OCCCCCCC(=O)NO)cc23)c1 , tested on A673/TR/shEF, showed cell viability (log2) of -0.197

# cell viability (log2) measured on A673/TR/shEF for item O=C1NC(=O)C(c2ccccc2)(c2ccccc2)N1 = 0.0456

The molecule CCCCC(=O)N(Cc1ccc(-c2ccccc2-c2nn[nH]n2)cc1)[C@H](C(=O)O)C(C)C , tested on A673/TR/shEF, showed cell viability (log2) of 0.054

Per the reported A673/TR/shEF data, Cc1ccc(NC(=O)c2ccc(CN3CCN(C)CC3)cc2)cc1Nc1nccc(-c2cccnc2)n1 has cell viability (log2) of 0.129

The observed cell viability (log2) for CO[C@H]1CC2CC[C@@H](C)[C@@](O)(O2)C(=O)C(=O)N2CCCC[C@H]2C(=O)O[C@H]([C@H](C)C[C@@H]2CC[C@@H](OP(C)(C)=O)[C@H](OC)C2)CC(=O)[C@H](C)/C=C(\C)[C@@H](O)[C@@H](OC)C(=O)[C@H](C)C[C@H](C)/C=C/C=C/C=C/1C when tested with A673/TR/shEF stands at -0.755

Given the molecule COc1ncc(-c2ccc3nccc(-c4ccnnc4)c3c2)cc1NS(=O)(=O)c1ccc(F)cc1F and test system A673/TR/shEF, the measured cell viability (log2) is -1.31

The recorded cell viability (log2) with A673/TR/shEF for Cc1cn(-c2cc(NC(=O)c3ccc(C)c(Nc4nccc(-c5cccnc5)n4)c3)cc(C(F)(F)F)c2)cn1 was 0.101

Record C/C(=C\C(=O)Nc1ccccc1C(=O)O)c1ccc2ccccc2c1 has A673/TR/shEF cell viability (log2) equal to 0.0436

# Cc1nc(N)sc1-c1ccnc(Nc2ccc(N3CCOCC3)cc2)n1 with A673/TR/shEF: cell viability (log2) is 0.0867

For the molecule C#Cc1cccc(Nc2ncnc3cc(OCCOC)c(OCCOC)cc23)c1 , the measured cell viability (log2) on A673/TR/shEF was 0.0933

Entry CC(C)C[C@H](NC(=O)[C@H](Cc1ccccc1)NC(=O)c1cnccn1)B(O)O , tested on A673/TR/shEF, has a reported cell viability (log2) of -1.75

Hey, just so you know, these numbers are from the supplement of paper PMC6089552.
